Data origin: the supplement of paper PMC10883282

Test system: SK-LMS-1
MEASUREMENT_PROTOCOL: relative viability vs DMSO control (72 h) (fraction); higher = more viable cells
STATED_CONDITIONS: 3.333 µM

- COMPOUND_STRUCTURE: "C#Cc1cccc(Nc2ncnc3cc(OCCOC)c(OCCOC)cc23)c1"
  relative viability: 0.941
- COMPOUND_STRUCTURE: "Cc1nc(Nc2ncc(C(=O)Nc3c(C)cccc3Cl)s2)cc(N2CCN(CCO)CC2)n1"
  relative viability: 0.656
- COMPOUND_STRUCTURE: "CO[C@H]1C[C@@H]2CC[C@@H](C)[C@@](O)(O2)C(=O)C(=O)N2CCCC[C@H]2C(=O)O[C@H]([C@H](C)C[C@@H]2CC[C@@H](O)[C@H](OC)C2)CC(=O)[C@H](C)/C=C(\\C)[C@@H](O)[C@@H](OC)C(=O)[C@H](C)C[C@H](C)/C=C/C=C/C=C/1C"
  relative viability: 0.522
- COMPOUND_STRUCTURE: "C[C@H]1Oc2cc(cnc2N)-c2c(nn(C)c2C#N)CN(C)C(=O)c2ccc(F)cc21"
  relative viability: 1
- COMPOUND_STRUCTURE: "CCCS(=O)(=O)N[C@H]1C[C@@H](N(C)c2ncnc3[nH]ccc23)C1"
  relative viability: 1.02
- COMPOUND_STRUCTURE: "Cc1cn(-c2cc(NC(=O)c3ccc(C)c(Nc4nccc(-c5cnccn5)n4)c3)cc(C(F)(F)F)c2)cn1"
  relative viability: 1.18
- COMPOUND_STRUCTURE: "Cc1cn(-c2cc(NC(=O)c3ccc(C)c(Nc4nccc(-c5cccnc5)n4)c3)cc(C(F)(F)F)c2)cn1"
  relative viability: 0.978

---

Tested on: VA-ES-BJ
MEASUREMENT_PROTOCOL: relative viability vs DMSO control (72 h) (fraction); higher = more viable cells
STATED_CONDITIONS: 0.1235 µM

- COMPOUND_STRUCTURE: "C=CC(=O)Nc1cccc(Nc2nc(Nc3ccc(N4CCN(C(C)=O)CC4)cc3OC)ncc2C(F)(F)F)c1"
  relative viability: 0.994
- COMPOUND_STRUCTURE: "CCCS(=O)(=O)N[C@H]1C[C@@H](N(C)c2ncnc3[nH]ccc23)C1"
  relative viability: 1.03
- COMPOUND_STRUCTURE: "Cc1ccc(C(=O)OCc2ccc([C@@H](CN)C(=O)Nc3ccc4cnccc4c3)cc2)c(C)c1"
  relative viability: 0.99

---

Test system: HT1080
MEASUREMENT_PROTOCOL: relative viability vs DMSO control (72 h) (fraction); higher = more viable cells
STATED_CONDITIONS: 0.04115 µM

- COMPOUND: "C[C@@H]1COC(Nc2ccc3ncnc(Nc4ccc(OCc5nccs5)c(Cl)c4)c3c2)=N1 [Varlitinib]"
  relative viability: 1.06
- COMPOUND: "COc1cc(Nc2c(C#N)cnc3cc(OCCCN4CCN(C)CC4)c(OC)cc23)c(Cl)cc1Cl [Bosutinib]"
  relative viability: 1.16
- COMPOUND: "CCCS(=O)(=O)N[C@H]1C[C@@H](N(C)c2ncnc3[nH]ccc23)C1 [Abrocitinib]"
  relative viability: 1.05
- COMPOUND: "C[C@H]1Oc2cc(cnc2N)-c2c(nn(C)c2C#N)CN(C)C(=O)c2ccc(F)cc21 [Lorlatinib]"
  relative viability: 1.03
- COMPOUND: "N#CCC1(n2cc(-c3ncnc4[nH]ccc34)cn2)CN(C2CCN(C(=O)c3ccnc(C(F)(F)F)c3F)CC2)C1 [Itacitinib]"
  relative viability: 0.991
- COMPOUND: "CCN(CCCOc1ccc2c(Nc3cc(CC(=O)Nc4cccc(F)c4)[nH]n3)ncnc2c1)CCOP(=O)(O)O [Barasertib]"
  relative viability: 0.977
- COMPOUND: "CN(C)C[C@@H]1CCn2cc(c3ccccc32)C2=C(C(=O)NC2=O)c2cn(c3ccccc23)CCO1 [Ruboxistaurin]"
  relative viability: 1.06
- COMPOUND: "CC[C@@H]1C(=O)N(C)c2cnc(Nc3ccc(C(=O)N[C@H]4CC[C@H](N5CCN(CC6CC6)CC5)CC4)cc3OC)nc2N1C(C)C [Volasertib]"
  relative viability: 0.998
- COMPOUND: "CCN(c1cc(-c2ccc(CN3CCOCC3)cc2)cc(C(=O)NCc2c(C)cc(C)[nH]c2=O)c1C)C1CCOCC1 [Tazemetostat]"
  relative viability: 1.07
- COMPOUND: "NC(=O)c1cccc2cn(-c3ccc([C@@H]4CCCNC4)cc3)nc12 [Niraparib]"
  relative viability: 1.01
- COMPOUND: "N#Cc1ccnc(N2C(=O)CC[C@H]2C(=O)N(c2cncc(F)c2)[C@H](C(=O)NC2CC(F)(F)C2)c2ccccc2Cl)c1 [Ivosidenib]"
  relative viability: 1.07
- COMPOUND: "Cc1cc(Nc2ncc(Cl)c(Nc3ccccc3S(=O)(=O)C(C)C)n2)c(OC(C)C)cc1C1CCNCC1 [Ceritinib]"
  relative viability: 1.06
- COMPOUND: "FC(F)(F)c1ccc(CNc2ccc(Cc3c[nH]c4ncc(Cl)cc34)cn2)cn1 [Pexidartinib]"
  relative viability: 1.1
